meta.source: patent US20260125382A1

Target: CDK9 (Homo sapiens)
Construct: endogenous in cells; host or cells: MDA-MB-231
Experiment: CDK protein degradation activity (Western blotting), CDK9
Format: cell-based
Conditions: MDA-MB-231 cells, 1 μM, 16 hours, Western blot
# Enzyme degradation CDK9 (% remaining) @ 1 μM listing for each entry below
Readout label: Enzyme degradation CDK9 (% remaining) @ 1 μM

Compound	Recorded value
Cc1cccc(C(=O)N[C@H]2C[C@@H](n3cnc4c(NC5CCN(CCCN6CCN(c7ccc8c(c7)C(=O)N([C@H]7CCC(=O)NC7=O)C8=O)CC6)CC5)ncnc43)C2)n1 (racemic)	0/0/0%
O=C1CC[C@H](N2C(=O)c3ccc(N4CC(C(=O)N5CCC(CN6CCC(CCNc7ncnc8c7ncn8C7CC(NC(=O)c8c(Cl)cccc8Cl)C7)CC6)CC5)C4)cc3C2=O)C(=O)N1 (stereo partly drawn)	0/0/0%
N#Cc1cccc(C(=O)N[C@H]2C[C@@H](n3cnc4c(Nc5ccc(N6CCN(CC7CCN(C(=O)CNc8cccc9c8C(=O)N(C8CCC(=O)NC8=O)C9=O)CC7)CC6)cc5)ncnc43)C2)n1 (stereo partly drawn)	0/0/0%

---

Target: CDK2 (Homo sapiens, UniProt P24941)
Construct: endogenous in cells; host or cells: MDA-MB-231
Assay: CDK protein degradation activity (Western blotting), CDK2
Format: cell-based
Conditions: MDA-MB-231 cells, 10 μM, 16 hours, Western blot
Enzyme degradation CDK2 (% remaining) @ 10 μM values for the compounds below.
Readout label: Enzyme degradation CDK2 (% remaining) @ 10 μM (%)

Compound	Target under test	Recorded value
N#Cc1cccc(C(=O)N[C@H]2C[C@@H](n3cnc4c(Nc5ccc(N6CCN(CC7CCN(c8ccc9c(c8)CN(C8CCC(=O)NC8=O)C9=O)CC7)CC6)cc5)ncnc43)C2)n1 (some centres unmarked) [Compound 441]	CDK2 (Homo sapiens, UniProt P24941)	40
Cc1cccc(C(=O)N[C@H]2C[C@@H](n3cnc4c(NC5CCN(CCC6CCN(C(=O)COc7ccc8c(c7)C(=O)N(C7CCC(=O)NC7=O)C8=O)CC6)CC5)ncnc43)C2)n1 (some centres unmarked) [Compound 31]	CDK2 (Homo sapiens, UniProt P24941)	30
O=C1CC[C@H](N2C(=O)c3ccc(NCC(=O)N4CCC5(CC(N6CCN(c7ccc(Nc8ncnc9c8ncn9[C@H]8C[C@@H](NC(=O)Cc9ccccc9)C8)cc7)CC6)C5)C4)cc3C2=O)C(=O)N1 (some centres unmarked) [Compound 265]	CDK2 (Homo sapiens, UniProt P24941)	70

---

Molecular target: CDK9 (Homo sapiens, UniProt P50750)
Construct: endogenous in cells; host or cells: MDA-MB-231
Sequence (P50750 whole entry): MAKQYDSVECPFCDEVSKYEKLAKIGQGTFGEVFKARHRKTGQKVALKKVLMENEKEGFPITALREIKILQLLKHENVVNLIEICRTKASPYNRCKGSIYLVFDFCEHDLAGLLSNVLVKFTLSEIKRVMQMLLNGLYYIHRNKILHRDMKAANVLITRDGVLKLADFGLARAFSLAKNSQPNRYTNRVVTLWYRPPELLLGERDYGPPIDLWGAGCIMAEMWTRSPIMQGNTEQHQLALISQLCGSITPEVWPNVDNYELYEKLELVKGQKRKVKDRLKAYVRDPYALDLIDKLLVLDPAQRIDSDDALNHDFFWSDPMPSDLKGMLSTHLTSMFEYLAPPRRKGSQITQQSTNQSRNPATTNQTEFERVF
Assay: CDK protein degradation activity (Western blotting), CDK9
Type: cell-based
Conditions: MDA-MB-231 cells, 10 μM, 16 hours, Western blot
Enzyme degradation CDK9 (% remaining) @ 10 μM for assorted molecules
Readout label: Enzyme degradation CDK9 (% remaining) @ 10 μM

Molecule	Recorded value
O=C1CCC(N2C(=O)c3cccc(N4CCC(OCCN5CCN(c6ccc(Nc7ncnc8c7ncn8[C@H]7C[C@@H](NC(=O)Cc8ccccc8)C7)cc6)CC5)CC4)c3C2=O)C(=O)N1 (some centres unmarked)	60/60/60%
O=C1CCC(N2C(=O)c3cccc(NCC(=O)N4CCC5(CC4)CC(N4CCC(c6ccc(Nc7ncnc8c7ncn8[C@H]7C[C@@H](NC(=O)Cc8ccccc8)C7)cc6)CC4)C5)c3C2=O)C(=O)N1 (some centres unmarked)	0/0/0%
O=C1CC[C@H](N2C(=O)c3ccc(N4CC(C(=O)N5CCC(CN6CCN(c7ccc(Nc8ncnc9c8ncn9[C@H]8C[C@@H](NC(=O)c9cccc(C(F)(F)F)n9)C8)cc7)CC6)CC5)C4)cc3C2=O)C(=O)N1	0/0/0%
O=C1CC[C@H](N2C(=O)c3cccc(OCC(=O)N4CCC(CN5CCC(c6ccc(Nc7ncnc8c7ncn8[C@H]7C[C@@H](NC(=O)Cc8ccccc8)C7)cc6)CC5)CC4)c3C2=O)C(=O)N1	0/0/0%
O=C1CCC(N2C(=O)c3ccc(N4CCC(CN5CCC(CCNc6ncnc7c6ncn7[C@H]6C[C@@H](NC(=O)c7c(Cl)cccc7Cl)C6)CC5)CC4)cc3C2=O)C(=O)N1 (some centres unmarked)	20/20/20%
O=C1CC[C@H](N2C(=O)c3cc(F)c(N4CCC(C(=O)N5CCC(CN6CCN(c7ccc(Nc8ncnc9c8ncn9[C@H]8C[C@@H](NC(=O)c9cccc(C(F)(F)F)n9)C8)cc7)CC6)CC5)CC4)cc3C2=O)C(=O)N1	0/0/0%
O=C1CC[C@H](N2C(=O)c3ccc(N4CC(C(=O)N5CCC(CCN6CCN(c7ccc(Nc8ncnc9c8ncn9C8CC(NC(=O)Cc9ccccc9)C8)cc7)CC6)CC5)C4)cc3C2=O)C(=O)N1 (some centres unmarked)	0/0/0%
O=C1CC[C@H](N2C(=O)c3ccc(N4CCC(C(=O)N5CCC(CN6CCN(c7ccc(Nc8ncnc9c8ncn9C8CC(NC(=O)Cc9ccccc9)C8)cc7)CC6)CC5)CC4)cc3C2=O)C(=O)N1 (some centres unmarked)	0/0/0%
